Cited source for all entries: paper PMC3057930

SYSTEM: Paramecium calmodulin, full-length (CaM_(1-148)) (Paramecium, UniProt P07463 1-149)
EXPERIMENT SUMMARY: fluorescence polarisation
No end group written: not given here. *: point of attachment. FITC = O=C1OC2(c3ccc(O)cc3Oc3cc(O)ccc32)c2ccc(NC(=S)*)cc21
MEASURE: Kd

>>> df
                            binder  measure  value_measured
0  {FITC}-ARKEIIRNKIRAIGKMARVFSVLR       Kd          ≤ 1 nM
